Assay: physchem
Below, each entry is listed alongside its reported pKa.

[
  {
    "compound": "O=C(NS(=O)(=O)c1ccc(F)cc1)N1CCC(N2CCC(Oc3ccc(Cl)c(Cl)c3)CC2)CC1",
    "qualifier sign": "=",
    "pKa": 3
  },
  {
    "compound": "CCCc1c2nc(C(=O)O)cc(NC)c2cc2c(=O)cc(C(=O)O)oc12 [MINOCROMIL]",
    "qualifier sign": "<",
    "pKa": 2
  },
  {
    "compound": "NS(=O)(=O)c1cc(C2(O)NC(=O)c3ccccc32)ccc1Cl (stereo not given) [CHLORTHALIDONE]",
    "qualifier sign": "=",
    "pKa": 9.11
  },
  {
    "compound": "NC1CCc2c(ccc(O)c2O)C1 (stereo not given)",
    "qualifier sign": "=",
    "pKa": 8.9
  },
  {
    "compound": "N#Cc1cn(Cc2ccco2)c(=O)[nH]c1=O",
    "qualifier sign": "=",
    "pKa": 6.1
  }
]

----------
Test: physchem
Conditions: octan-1-ol/water, pH 7.4, LogD7.4
# logD >= 2 gives T, anything below gives F

[
  {
    "compound": "CC(C)c1nnc2ccc(-c3ocnc3-c3cc(F)ccc3F)cn12",
    "assigned category": "T"
  },
  {
    "compound": "CNc1nc2ccccc2n1Cc1sc2c(c1C(=O)N1CC[C@@H](O)C1)c(=O)n(C)c(=O)n2CC(C)C",
    "assigned category": "F"
  },
  {
    "compound": "Cc1cc(Cl)ccc1OC1CCN(C[C@H](O)CNC(=O)c2c[nH]c(=O)cc2C(F)(F)F)CC1",
    "assigned category": "T"
  },
  {
    "compound": "CCc1ccc(NC(=O)c2ccc3cc(C(=N)N)ccc3c2)cc1",
    "assigned category": "F"
  },
  {
    "compound": "CCc1c(C)[nH]c2c1C(=O)C(CN1CCOCC1)CC2 (centres undefined)",
    "assigned category": "F"
  },
  {
    "compound": "COc1cc(-c2cccc3c(=O)cc(N4CCOCC4)oc23)ccc1NC(=O)CN1CCOCC1",
    "assigned category": "T"
  },
  {
    "compound": "Cc1c(-c2ccc(O)cc2)c(=O)oc2cc(O)ccc12",
    "assigned category": "T"
  },
  {
    "compound": "Cc1cc(Oc2cc(S(=O)(=O)N3CCC[C@H](n4cc(C)c(=O)[nH]c4=O)C3)ccc2O)ccc1Cl",
    "assigned category": "T"
  },
  {
    "compound": "CCOC(=O)/C=C/[C@H](C[C@@H]1CCNC1=O)NC(=O)[C@@H](CC(=O)[C@@H](NC(=O)c1cc(C)on1)C(C)C)Cc1ccc(F)cc1",
    "assigned category": "T"
  }
]

----------
The compounds listed here are annotated with their logD.
Test: physchem
Settings: octan-1-ol/water, pH 7.4, LogD7.4
endpoint: logD

[
  {
    "compound": "Cn1ncc(Cl)c1-c1cc(C(=O)N[C@H](CN)Cc2cccc(F)c2)sc1Cl [AFURESERTIB]",
    "meas value": 2.99
  },
  {
    "compound": "COc1cc(N2CCN(C(C)=O)CC2)ccc1Nc1ncc(Cl)c(-c2cnc3c(N)cccn23)n1",
    "meas value": 3.4
  },
  {
    "compound": "Clc1ccccc1CN1CCc2sccc2C1 [TICLOPIDINE]",
    "meas value": 3.46
  },
  {
    "compound": "O=C(CC1CCN(Cc2ccn(-c3ccc(C(F)(F)F)cc3)c2)CC1)N(CCCO)Cc1ccc(F)cc1",
    "meas value": 3.04
  },
  {
    "compound": "CCCCCOC(=O)Nc1nc(=O)n([C@@H]2O[C@H](C)[C@@H](O)[C@H]2O)cc1F [CAPECITABINE]",
    "meas value": 0.67
  },
  {
    "compound": "CN(C)CC(O)COc1ccc(Nc2nccc(Nc3cccc(Cl)c3)n2)cc1 (centres undefined)",
    "meas value": 2.5
  },
  {
    "compound": "O=C(Nc1cc(-c2ccnc(Nc3ccccc3)c2)ccn1)C1CCOCC1",
    "meas value": 3.7
  },
  {
    "compound": "CCC(c1nc2ccsc2c(=O)n1Cc1ccccc1)N(CCCN)C(=O)c1ccc(OC)cc1 (centres undefined)",
    "meas value": 1.39
  },
  {
    "compound": "COc1ccc(-c2ccc3c(N4CCOC[C@@H]4C)nc(-n4ccnc4)nc3n2)cc1CO",
    "meas value": 2.6
  }
]

Reference source: ChEMBL document CHEMBL3301361
